testTarget: PARM^WT (human Mint2 PTB domain with ARM linker, residues 364-570, no Y524W) (human, UniProt Q99767 364-570)
Sequence (Q99767 364-570 Y524W): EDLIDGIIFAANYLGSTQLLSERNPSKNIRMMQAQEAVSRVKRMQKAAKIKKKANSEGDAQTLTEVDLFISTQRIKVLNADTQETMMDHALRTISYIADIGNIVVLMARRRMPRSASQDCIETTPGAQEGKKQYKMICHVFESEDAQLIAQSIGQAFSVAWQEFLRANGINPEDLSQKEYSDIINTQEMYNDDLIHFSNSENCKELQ
assayProtocol: fluorescence polarisation
assaySetup: both partners purified
pKi: −log10 of the molar value.

binder | pKi
NGYENPTYKFFE [APP^WT 12-mer (NGYENPTYKFFE), unlabelled] | 5.49
